- Tested on: H460 cells
- measurement notes: Cell viability, ATP-LITE assay, H460
- Assay type: cell-based, human
- assay context: 72 hours of treatment
attribute measured: EC50 (nM)
Your answer is read as nM, so omit the unit and give the number.

Input line: // returns reported EC50 for input Cc1cc2c(C(=O)NCC(C)c3ccccc3)c(O)c(O)cc2c(O)c1-c1c(C)cc2c(C(=O)NCC(C)c3ccccc3)c(O)c(O)cc2c1O (single isomer, unassigned) [Compound 14]
Output line: 800
